// provenance: PubChem BioAssay (NCATS)

system: CP185; experiment: qHTS profiling for inhibitors of Plasmodium falciparum proliferation (AID 504749);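 note: 0% = DMSO vehicle and full inhibition = artemisinin control; nearly all actives have a fitted effect of over 60% in size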; settings: P. falciparum in erythrocytes, SYBR Green DNA, 72 h; series mostly up to 28.7 µM
Results filed as inconclusive are left out. Calls of active or inactive are those of the source. Calls come from the whole dose curve; as a rule, active = well fitted inhibition curve with a large enough effect; inconclusive = small, poorly fitted or top-dose-only effect; inactive = flat fitted curve, though single readings scatter.
Use one of these outcomes when replying: class 1 for active, class 0 for inactive

Illustrative cases are given below, each with its answer.
O=C(OC1C[C@@H]2CC3C[C@H](C1)N2CC3=O)c1c[nH]c2ccccc12 (some centres undefined)
class 0
CCCCC[C@H](O)/C=C/[C@H]1[C@H](O)CC(=O)[C@@H]1C/C=C\CCCC(=O)O
class 0
Cc1cc(-c2ccc(N=Nc3ccc4c(S(=O)(=O)O)cc(S(=O)(=O)O)c(N)c4c3O)c(C)c2)ccc1N=Nc1ccc2c(S(=O)(=O)O)cc(S(=O)(=O)O)c(N)c2c1O
class 0

input: What classification did FC(F)OC(Cl)C(F)(F)F (centres undefined) end up with in this test?
output: class 0

input: Recorded test outcome, item COC(=O)[C@@H](N)CS
output: class 0

input: Hi, sorry to bother you, what did the test record for Cc1ncc(C[n+]2csc(CCOP(=O)(O)OP(=O)(O)O)c2C)c(N)n1 ?
output: class 0

input: Short answer needed: outcome of this test for O=[n+]1ccn([O-])c2ccccc21 ?
output: class 0
